Data origin: patent US20190169221A1

Give IC50 for every item shown.
Test target: NS5B-BK (Delta-21) (Hepatitis C virus genotype 1b, UniProt P26663)
Sequence (P26663 2420-2989 limits assumed): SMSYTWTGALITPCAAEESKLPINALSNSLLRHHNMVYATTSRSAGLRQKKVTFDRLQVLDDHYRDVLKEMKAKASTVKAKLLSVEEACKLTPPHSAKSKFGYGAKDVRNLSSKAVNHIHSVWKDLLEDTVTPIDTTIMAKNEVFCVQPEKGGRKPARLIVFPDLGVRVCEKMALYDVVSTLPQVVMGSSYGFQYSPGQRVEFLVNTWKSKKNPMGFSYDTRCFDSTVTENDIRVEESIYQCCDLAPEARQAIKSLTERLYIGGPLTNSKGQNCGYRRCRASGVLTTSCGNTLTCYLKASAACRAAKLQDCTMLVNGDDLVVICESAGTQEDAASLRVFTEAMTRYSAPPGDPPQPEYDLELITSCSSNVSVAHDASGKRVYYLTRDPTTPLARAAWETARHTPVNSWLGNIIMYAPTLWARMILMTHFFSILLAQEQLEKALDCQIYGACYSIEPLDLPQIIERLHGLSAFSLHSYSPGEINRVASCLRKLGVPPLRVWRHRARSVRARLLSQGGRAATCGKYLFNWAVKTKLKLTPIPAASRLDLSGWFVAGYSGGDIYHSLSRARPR
Test: biochemical

Reference set, count: 5
1) C#C[C@@]1(O)[C@H](O)[C@@H](COP(=O)(O)OP(=O)(O)OP(=O)(O)O)O[C@H]1c1cnc2c(N)ncnn12 ... < 3 µM
2) C#C[C@]1(O)[C@H](n2cc(C(N)=O)c3c(N)ncnc32)O[C@](F)(COP(=O)(O)OP(=O)(O)OP(=O)(O)O)[C@H]1O ... 3 to 30 µM
3) C[C@]1(F)[C@H](n2cnc3c(N)ncnc32)O[C@](F)(COP(=O)(O)OP(=O)(O)OP(=O)(O)O)[C@H]1O ... < 3 µM
4) C#C[C@@]1(O)[C@H](O)[C@@H](COP(=O)(O)OP(=O)(O)OP(=O)(O)O)O[C@H]1n1cnc2c(N)nc(N)nc21 ... < 3 µM
5) C#C[C@]1(O)[C@H](n2cc(C#N)c3c(N)ncnc32)O[C@](F)(COP(=O)(O)OP(=O)(O)OP(=O)(O)O)[C@H]1O ... < 3 µM

Now take the following compound into account.
Entry C#C[C@]1(O)[C@H](n2cnc3c(N)ncnc32)O[C@](F)(COP(=O)(O)OP(=O)(O)OP(=O)(O)O)[C@H]1O has what IC50?
< 3 µM

###

Give EC50 for every item shown.
System: Huh-7 cells containing the self-replicating, subgenomic HCV replicon
Test: HCV replicon assay
Type: cell-based
Particulars: Hepatitis C virus; Huh-7 replicon cells, 72 h, luciferase

1) C#C[C@]1(O)[C@H](n2cnc3c(N)ncnc32)O[C@](F)(CO)[C@H]1O [Compound 1] ... < 3 µM

Quick request: EC50 for each listed item, please.
1. C[C@]1(O)[C@H](n2cnc3c(N)ncnc32)O[C@](F)(CO)[C@H]1O [Compound 13]
2. C[C@]1(F)[C@H](n2cnc3c(N)nc(N)nc32)O[C@](F)(CO)[C@H]1O [Compound 15]

1: 3 to 30 µM; 2: > 100 µM

###

Test target: Dengue viral polymerase (Dengue virus type 2, UniProt P14340)
Give IC50 for every item shown.

Reference set, count: 5
1. C#C[C@@]1(F)[C@H](O)[C@@H](COP(=O)(O)OP(=O)(O)OP(=O)(O)O)O[C@H]1c1cnc2c(N)ncnn12 ... 30 to 100 µM
2. C#C[C@@]1(O)[C@H](O)[C@@H](COP(=O)(O)OP(=O)(O)OP(=O)(O)O)O[C@H]1n1cnc2c(N)nc(N)nc21 ... 3 to 30 µM
3. C#C[C@]1(O)[C@H](n2cnc3c(N)nc(F)nc32)O[C@](F)(COP(=O)(O)OP(=O)(O)OP(=O)(O)O)[C@H]1O ... < 3 µM
4. C#C[C@]1(O)[C@H](n2ccc3c(N)ncnc32)O[C@](F)(COP(=O)(O)OP(=O)(O)OP(=O)(O)O)[C@H]1O ... 3 to 30 µM
5. C#C[C@@]1(O)[C@H](O)[C@@H](COP(=O)(O)OP(=O)(O)OP(=O)(O)O)O[C@H]1n1cc(F)c2c(N)ncnc21 ... < 3 µM

Quick request: IC50 for each listed item, please.
1. C[C@]1(F)[C@H](n2cnc3c(N)nc(N)nc32)O[C@](F)(COP(=O)(O)OP(=O)(O)OP(=O)(O)O)[C@H]1O
2. C=C=C[C@@]1(O)[C@H](O)[C@@H](COP(=O)(O)OP(=O)(O)OP(=O)(O)O)O[C@H]1n1cnc2c(N)ncnc21
3. C#C[C@@]1(O)[C@H](O)[C@@H](COP(=O)(O)OP(=O)(O)OP(=O)(O)O)O[C@H]1n1cnc2c(=O)[nH]cnc21
4. C#C[C@@]1(O)[C@H](O)[C@@H](COP(=O)(O)OP(=O)(O)OP(=O)(O)O)O[C@H]1n1cnc2c(N)nc(F)nc21

1. 30 to 100 µM
2. 3 to 30 µM
3. < 3 µM
4. 3 to 30 µM
